- Target Under Test: BKV serotype III chimeric infectious virus (VP1 of isolate AS) (BK virus serotype III)
- Assay Text: cell-based or functional assay
Experimental Endpoint: neutralization EC50

A selection of reference data follows.
Binder: NEG447 (antibody, human IgG1, lambda, V domains shown) VH: QVQLQESGPGLVKPSETLSLTCTVSGGSISRDYWSWVRQPPGAGLEWIGNIYYSGSTNYNPSLKSRVTISVATNKKQFSLKLTSVTAADTAVYYCARVPGCSSTSCIDGWFDPWGQGILVTVSS VL: QSVLTQPPSLSAAPGQKVTISCSGSSSNIGNTYVSWYQQLPGTAPKLLIYDNNKRPSGIPDRFSGSKSGTSATLGITGLQTGDEAVYYCGTWDSSLSAWVFGGGTRLTVLG
Result Value: > 100 µg/mL

Binder: P7G11 (antibody, human IgG1, lambda, V domains shown) VH: QVQLQESGPGLAKPSQTLSLTCSVSGGSISSGGYSWSWIRQPPGKGLEYIGYIYYRGTTYYNPSLKSRITMSVDTSNNQISLKLTSVTAADTAVYYCARALTHLVGVGWFDPWGQGTMVTVSS VL: QSVLTQPPSVSAAPGQKVTISCSGGSSNLGSNYVSWYQQLPGTAPKLLIYDNNKRPSGIPDRFSGSKSGTSATLGITGLQTGDEADYYCGTWDGSLSAWVFGGGTKVTVLG
Result Value: > 100 µg/mL

Binder: P8D11A (antibody, V domains shown) VH: QVQLVESGGTLVQPGGSLRLSCAASGFTFSNYWMTWVRQAPGKGLEWVANIKKDGSEKYYVDSVRGRFTISRDNAKNSLFLQMNSLRPEDTAVYFCATVRSGRYFALDDWGQGTLVTVSS VL: QSVLTQPPSVSVAPGKTARITCGGDNIGSRPVHWYQQKPGQAPILVVYDDSNRPSGIPERFSGSNSGNTATLTISRVEAGDEADYYCQVWSSSTDHPFGGGTKVTVLG
Result Value: 0.01 µg/mL

Query :: Quick one: neutralization EC50 for NEG447A (antibody, human IgG1, lambda, V domains shown) VH: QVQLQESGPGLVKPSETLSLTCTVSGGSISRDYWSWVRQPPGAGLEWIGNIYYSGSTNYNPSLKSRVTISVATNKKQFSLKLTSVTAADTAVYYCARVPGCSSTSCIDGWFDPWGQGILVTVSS VL: QSVLTQPPSVSAAPGQKVTISCSGSSSNIGNTYVSWYQQLPGTAPKLLIYDNNKRPSGIPDRFSGSKSGTSATLGITGLQTGDEADYYCGTWDSSLSAWVFGGGTRLTVLG ?
Result :: > 100 µg/mL

Query :: # input binder: P7G11A (antibody, human IgG1, lambda, V domains shown) VH: QVQLQESGPGLVKPSQTLSLTCTVSGGSISSGGYSWSWIRQPPGKGLEYIGYIYYRGTTYYNPSLKSRVTISVDTSNNQISLKLSSVTAADTAVYYCARALTHLVGVGWFDPWGQGTMVTVSS VL: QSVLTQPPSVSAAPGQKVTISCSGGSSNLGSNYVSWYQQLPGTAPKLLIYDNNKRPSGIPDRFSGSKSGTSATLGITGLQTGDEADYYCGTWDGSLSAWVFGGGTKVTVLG ; wanted: its neutralization EC50
Result :: > 100 µg/mL

Query :: Value lookup for neutralization EC50; key = P8D11C (antibody, V domains shown) VH: QVQLVESGGTLVQPGGSLRLSCAASGFTFQNYWMTWVRQAPGKGLEWVANIKKDGSEKYYVDSVRGRFTISRDNAKNSLFLQMNSLRPEDTAVYFCATVRSGRYFALDDWGQGTLVTVSS VL: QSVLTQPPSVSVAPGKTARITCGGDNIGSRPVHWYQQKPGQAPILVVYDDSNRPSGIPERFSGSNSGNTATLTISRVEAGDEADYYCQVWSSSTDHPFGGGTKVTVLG
Result :: 0.049 µg/mL
